The measurements presented in this section are drawn from ChEMBL document CHEMBL1124366.

Tested on: Pseudomonas aeruginosa
experiment_description: In vitro minimum inhibitory concentration against Pseudomonas aeruginosa ATCC 10145
Format: functional
quantity: MIC

[[record]]
compound = "N[C@H]1C(=O)N[C@@H]2Cc3ccc(c(Cl)c3)Oc3cc4cc(c3O)Oc3ccc(cc3Cl)[C@@H](O)[C@@H]3NC(=O)[C@H](NC(=O)[C@@H]4NC(=O)[C@@H](NC2=O)c2cc(O)cc(c2)Oc2cc1ccc2O)c1ccc(O)c(c1)-c1c(O)cc(O)cc1[C@@H](C(=O)NCCN1CCOCC1)NC3=O"
readout_value = "64 µg/mL"


Given CNCCCN(C)C(=O)[C@H]1NC(=O)[C@H]2NC(=O)[C@H](NC(=O)[C@@H]3NC(=O)[C@H]4NC(=O)[C@@H](Cc5ccc(c(Cl)c5)Oc5cc3cc(c5O)Oc3ccc(cc3Cl)[C@H]2O)NC(=O)[C@H](N)c2ccc(O)c(c2)Oc2cc(O)cc4c2)c2ccc(O)c(c2)-c2c(O)cc(O)cc21 , respond with its MIC.
16 µg/mL

Name the recorded MIC of the item NCCCCNC(=O)[C@H]1NC(=O)[C@H]2NC(=O)[C@H](NC(=O)[C@@H]3NC(=O)[C@H]4NC(=O)[C@@H](Cc5ccc(c(Cl)c5)Oc5cc3cc(c5O)Oc3ccc(cc3Cl)[C@H]2O)NC(=O)[C@H](N)c2ccc(O)c(c2)Oc2cc(O)cc4c2)c2ccc(O)c(c2)-c2c(O)cc(O)cc21 in your answer.
32 µg/mL
